Listed compounds paired with reported Ca
Organism: Rattus norvegicus
MEASUREMENT_DESCRIPTION: Open TG-GATES - Regimen: Daily Repeat
Format: toxicity, organism-based, Sprague-Dawley
Design: regimen Daily Repeat, gender Male, age 6 weeks
TEST_CONDITIONS: in vivo, po, 0 mg/kg, […], tissue Plasma, route gavage, dose level Control, time 14 day
Write the answer as a number in mg/dL, unit excluded.

Worked cases, answers included:
{"columns": ["COMPOUND", "Ca (mg/dL)"],
 "data": [
  ["CC(=O)Oc1cc(C(C)C)c(OCCN(C)C)cc1C [MOXISYLYTE]", 10.7],
  ["CCSCC[C@H](N)C(=O)O [ETHIONINE]", 10.6],
  ["Nc1nc(N)c2nc(-c3ccccc3)c(N)nc2n1", 10.6],
  ["CN1C(=O)OC(C)(C)C1=O [TRIMETHADIONE]", 10.8]
]}

Next item in the queue.
## Task Given C#C[C@]1(O)CC[C@H]2[C@@H]3CCc4cc(O)ccc4[C@H]3CC[C@@]21C [ETHINYL ESTRADIOL] , state its recorded Ca.
## Result 11.3

###

Species: Rattus norvegicus
MEASUREMENT_DESCRIPTION: Open TG-GATES - Regimen: Daily Repeat
Type: toxicity, organism-based, Sprague-Dawley
Parameters: regimen Daily Repeat, gender Male, age 6 weeks
TEST_CONDITIONS: in vivo, po, 300 mg/kg, […], tissue Blood, route gavage, dose level Middle, time 14 day
Listed compounds paired with reported MCV
Write the answer as a number in fL, unit excluded.

Worked cases, answers included:
{"columns": ["COMPOUND", "UNIT_ABBREV", "MCV"],
 "data": [
  ["O=C(O)c1cccnc1", "fL", 59.8],
  ["CC(C)(S)[C@@H](N)C(=O)O", "fL", 59.8],
  ["O=C(N[C@H](CO)[C@H](O)c1ccc([N+](=O)[O-])cc1)C(Cl)Cl", "fL", 63.1]
]}

Next item in the queue.
## Task Given CCN1CCCC1CNC(=O)c1cc(S(N)(=O)=O)ccc1OC (centres undefined) [SULPIRIDE] , state its recorded MCV.
## Result 60

###

Species: Rattus norvegicus
MEASUREMENT_DESCRIPTION: Open TG-GATES - Regimen: Single
Format: toxicity, organism-based, Sprague-Dawley
Set-up: regimen Single, gender Male, age 6 weeks
TEST_CONDITIONS: in vivo, po, 0 mg/kg, 3 h, tissue Blood, route gavage, dose level Control
Listed molecules paired with reported Ret
Write the answer as a number in %, unit excluded.

Worked cases, answers included:
{"columns": ["MOLECULE", "Ret (%)"],
 "data": [
  ["CN1C(=O)OC(C)(C)C1=O [TRIMETHADIONE]", 8.2],
  ["CC(=O)Oc1cc(C(C)C)c(OCCN(C)C)cc1C [MOXISYLYTE]", 8.8],
  ["C[C@]12CCC(=O)C=C1CC[C@@H]1[C@@H]2CC[C@@]2(C)[C@H]1CC[C@]2(C)O [METHYLTESTOSTERONE]", 8.5],
  ["CC(C)C(=O)Nc1ccc([N+](=O)[O-])c(C(F)(F)F)c1 [FLUTAMIDE]", 8.3],
  ["O=C(O)c1cccnc1 [NIACIN]", 7.9]
]}

## Task Given Oc1ncnc2[nH]ncc12 [ALLOPURINOL] , state its recorded Ret.
## Result 8.1

## Task Given O=C(N[C@H](CO)[C@H](O)c1ccc([N+](=O)[O-])cc1)C(Cl)Cl [CHLORAMPHENICOL] , state its recorded Ret.
## Result 8.3

## Task Given CCc1oc2ccccc2c1C(=O)c1cc(I)c(O)c(I)c1 [BENZIODARONE] , state its recorded Ret.
## Result 9.1

## Task Given C[C@](N)(Cc1ccc(O)c(O)c1)C(=O)O [METHYLDOPA] , state its recorded Ret.
## Result 11

## Task Given "Nc1nc(N)c2nc(-c3ccccc3)c(N)nc2n1" , state its recorded Ret.
## Result 7.4

###

Listed compounds paired with reported Ht
Organism: Rattus norvegicus
MEASUREMENT_DESCRIPTION: Open TG-GATES - Regimen: Daily Repeat
Type: toxicity, organism-based, Sprague-Dawley
Set-up: regimen Daily Repeat, gender Male, age 6 weeks
TEST_CONDITIONS: in vivo, po, 1000 mg/kg, […], tissue Blood, route gavage, dose level High, time 28 day
Write the answer as a number in %, unit excluded.

Worked cases, answers included:
{"columns": ["COMPOUND", "Ht [%]"],
 "data": [
  ["CCN1CCCC1CNC(=O)c1cc(S(N)(=O)=O)ccc1OC (centres undefined) [SULPIRIDE]", 45.5],
  ["O=C(N[C@H](CO)[C@H](O)c1ccc([N+](=O)[O-])cc1)C(Cl)Cl", 42.8],
  ["CC(C)(S)[C@@H](N)C(=O)O", 37.3]
]}

## Task Given "O=C(O)c1cccnc1" , state its recorded Ht.
## Result 42.1

###

Species: Rattus norvegicus
MEASUREMENT_DESCRIPTION: Open TG-GATES - Regimen: Daily Repeat
Format: toxicity, organism-based, Sprague-Dawley
Parameters: regimen Daily Repeat, gender Male, age 6 weeks
TEST_CONDITIONS: in vivo, po, 100 mg/kg, […], tissue Blood, route gavage, dose level Low, time 7 day
RESULT_TYPE: MCV (fL)
Write the answer as a number in fL, unit excluded.

Worked cases, answers included:
{"columns": ["COMPOUND", "MCV / fL"],
 "data": [
  ["CC(C)(S)[C@@H](N)C(=O)O", 63],
  ["CCN1CCCC1CNC(=O)c1cc(S(N)(=O)=O)ccc1OC (centres undefined) [SULPIRIDE]", 61.9],
  ["O=C(N[C@H](CO)[C@H](O)c1ccc([N+](=O)[O-])cc1)C(Cl)Cl", 65.7]
]}

Next item in the queue.
## Task Given "O=C(O)c1cccnc1" , state its recorded MCV.
## Result 60.8

###

Species on record: Rattus norvegicus
MEASUREMENT_DESCRIPTION: Open TG-GATES - Regimen: Daily Repeat
Type: toxicity, organism-based, Sprague-Dawley
Set-up: regimen Daily Repeat, gender Male, age 6 weeks
TEST_CONDITIONS: in vivo, po, 0 mg/kg, […], tissue Blood, route gavage, dose level Control, time 28 day
RESULT_TYPE: APTT (s)
Write the answer as a number in s, unit excluded.

Worked cases, answers included:
{"columns": ["MOLECULE", "APTT [s]"],
 "data": [
  ["CC(=O)Oc1cc(C(C)C)c(OCCN(C)C)cc1C [MOXISYLYTE]", 24],
  ["C#C[C@]1(O)CC[C@H]2[C@@H]3CCc4cc(O)ccc4[C@H]3CC[C@@]21C [ETHINYL ESTRADIOL]", 18],
  ["Oc1ncnc2[nH]ncc12 [ALLOPURINOL]", 16.3],
  ["C[C@]12CCC(=O)C=C1CC[C@@H]1[C@@H]2CC[C@@]2(C)[C@H]1CC[C@]2(C)O [METHYLTESTOSTERONE]", 17.5]
]}

## Task Given CC(C)(S)[C@@H](N)C(=O)O [PENICILLAMINE] , state its recorded APTT.
## Result 18.4

## Task Given CCc1oc2ccccc2c1C(=O)c1cc(I)c(O)c(I)c1 [BENZIODARONE] , state its recorded APTT.
## Result 17.9

## Task Given O=C(N[C@H](CO)[C@H](O)c1ccc([N+](=O)[O-])cc1)C(Cl)Cl [CHLORAMPHENICOL] , state its recorded APTT.
## Result 18.3

## Task Given "Nc1nc(N)c2nc(-c3ccccc3)c(N)nc2n1" , state its recorded APTT.
## Result 18

## Task Given CCN1CCCC1CNC(=O)c1cc(S(N)(=O)=O)ccc1OC (centres undefined) [SULPIRIDE] , state its recorded APTT.
## Result 19.6

## Task Given C[C@](N)(Cc1ccc(O)c(O)c1)C(=O)O [METHYLDOPA] , state its recorded APTT.
## Result 19.6

## Task Given CCSCC[C@H](N)C(=O)O [ETHIONINE] , state its recorded APTT.
## Result 20.5

## Task Given CC(C)C(=O)Nc1ccc([N+](=O)[O-])c(C(F)(F)F)c1 [FLUTAMIDE] , state its recorded APTT.
## Result 19.6

## Task Given CN1C(=O)OC(C)(C)C1=O [TRIMETHADIONE] , state its recorded APTT.
## Result 17.5

## Task Given CC(=N)S [THIOACETAMIDE] , state its recorded APTT.
## Result 17.5

###

Species on record: Rattus norvegicus
MEASUREMENT_DESCRIPTION: Open TG-GATES - Regimen: Daily Repeat
Format: toxicity, organism-based, Sprague-Dawley
Parameters: regimen Daily Repeat, gender Male, age 6 weeks
TEST_CONDITIONS: in vivo, po, 0 mg/kg, […], tissue Blood, route gavage, dose level Control, time 7 day
RESULT_TYPE: Neu (%)
Write the answer as a number in %, unit excluded.

Worked cases, answers included:
{"columns": ["COMPOUND", "READOUT_NUMBER"],
 "data": [
  ["C[C@](N)(Cc1ccc(O)c(O)c1)C(=O)O [METHYLDOPA]", 20.4],
  ["CCc1oc2ccccc2c1C(=O)c1cc(I)c(O)c(I)c1 [BENZIODARONE]", 14.2],
  ["CCN1CCCC1CNC(=O)c1cc(S(N)(=O)=O)ccc1OC (stereo not given) [SULPIRIDE]", 14],
  ["O=C(O)c1cccnc1 [NIACIN]", 16.8],
  ["Oc1ncnc2[nH]ncc12 [ALLOPURINOL]", 16.8]
]}

## Task Given CN1C(=O)OC(C)(C)C1=O [TRIMETHADIONE] , state its recorded Neu.
## Result 16.4

## Task Given CC(C)C(=O)Nc1ccc([N+](=O)[O-])c(C(F)(F)F)c1 [FLUTAMIDE] , state its recorded Neu.
## Result 14.6

## Task Given CC(=N)S [THIOACETAMIDE] , state its recorded Neu.
## Result 10.8

## Task Given CCC(C)(C)C(=O)O[C@H]1C[C@@H](C)C=C2C=C[C@H](C)[C@H](CC[C@@H]3C[C@@H](O)CC(=O)O3)[C@H]21 [SIMVASTATIN] , state its recorded Neu.
## Result 12

## Task Given "Nc1nc(N)c2nc(-c3ccccc3)c(N)nc2n1" , state its recorded Neu.
## Result 17.6
